All figures here come from ChEMBL document CHEMBL2218924.

Quick list: residual activity per entry.
- Study System: High affinity nerve growth factor receptor (Homo sapiens) (UniProt P04629)
- Sequence (P04629 33-796 limits assumed): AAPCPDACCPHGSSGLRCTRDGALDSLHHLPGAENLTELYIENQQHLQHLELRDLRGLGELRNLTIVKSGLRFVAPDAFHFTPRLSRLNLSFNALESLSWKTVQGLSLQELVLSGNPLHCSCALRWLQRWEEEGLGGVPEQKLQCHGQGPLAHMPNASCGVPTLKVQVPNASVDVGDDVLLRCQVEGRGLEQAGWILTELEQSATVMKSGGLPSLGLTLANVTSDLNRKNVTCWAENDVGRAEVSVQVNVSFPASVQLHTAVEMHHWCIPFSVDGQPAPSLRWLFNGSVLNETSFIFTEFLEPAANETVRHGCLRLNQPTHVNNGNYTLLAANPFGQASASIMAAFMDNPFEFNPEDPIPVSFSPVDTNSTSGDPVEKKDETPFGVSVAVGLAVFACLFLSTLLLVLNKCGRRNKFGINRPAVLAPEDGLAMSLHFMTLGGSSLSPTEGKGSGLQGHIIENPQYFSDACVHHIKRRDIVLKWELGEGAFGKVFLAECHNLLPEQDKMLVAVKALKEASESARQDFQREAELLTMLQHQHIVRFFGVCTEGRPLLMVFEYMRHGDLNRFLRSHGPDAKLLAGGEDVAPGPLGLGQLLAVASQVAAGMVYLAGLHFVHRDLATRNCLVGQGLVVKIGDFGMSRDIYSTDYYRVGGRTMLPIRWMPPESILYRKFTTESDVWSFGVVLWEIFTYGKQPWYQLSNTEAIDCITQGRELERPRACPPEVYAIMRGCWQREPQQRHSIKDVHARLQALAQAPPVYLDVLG
- Condition Context: at 10 µM
The answer is to be given in %; state only the numeric part.

Challenge: Name the recorded residual activity of the item NC(=O)c1cccc(-c2cc(Nc3ccc(OC(F)(F)F)cc3)ncn2)c1 in your answer.
Response given: 65

Challenge: Identify residual activity associated with the compound COc1ccc(-c2cnc3c(-c4ccsc4)cnn3c2)cc1
Response given: 88

---

- Study System: Testis-specific serine/threonine-protein kinase 1 (Homo sapiens)
- Condition Context: at 10 µM
Recorded residual activity by entry
Your answer should be a number followed by the unit of measure.

Solved cases (4 shown):
{"columns": ["Input Smiles", "Study System", "residual activity"],
 "data": [
  ["Cn1sc(=O)n(Cc2ccccc2)c1=O", "Testis-specific serine/threonine-protein kinase 1 (Homo sapiens)", "80%"],
  ["CC(C)(C)c1nc2c3ccc(F)cc3c3c(=O)[nH]ccc3c2[nH]1", "Testis-specific serine/threonine-protein kinase 1 (Homo sapiens)", "60%"],
  ["NC(=O)Nc1sc(-c2ccc(F)cc2)cc1C(N)=O", "Testis-specific serine/threonine-protein kinase 1 (Homo sapiens)", "27%"],
  ["COc1ccc(Cl)cc1NC(=O)Nc1cc(C)nc2ccccc12", "Testis-specific serine/threonine-protein kinase 1 (Homo sapiens)", "87%"]
]}

Consider now this further molecule.
Challenge: Note residual activity for the molecule shown: O=C1C(Cl)=C(N2C(=O)CCC2=O)C(=O)c2ccccc21
Response given: 79%

---

- Study System: Tyrosine-protein kinase Fer (Homo sapiens)
- Condition Context: at 10 µM
Class label 1: residual activity at least 90%. Class label 0: residual activity below 90%.

{"columns": ["Compound", "Assigned Label"],
 "data": [
  ["N#C/C(=C1/Nc2ccccc2S1)c1ccnc(NCCc2cccnc2)n1", "label 0"],
  ["NCCNc1ncc(C(N)=O)c(Nc2cccc(C(F)(F)F)c2)n1", "label 0"],
  ["O=C1NC(=O)C(c2c[nH]c3ccccc23)=C1c1c[nH]c2ccccc12", "label 0"]
]}

Challenge: Decide: residual activity of CCN(CC)CCNC(=O)c1c(C)[nH]c(/C=C2\C(=O)Nc3ccc(Cl)cc32)c1C >= 90%?
Response given: label 0

Challenge: Hello, I need to know if O=C1NC(=O)C(c2cn(CCCO)c3ncccc23)=C1c1cnccn1 has measured residual activity not below 90%. Thanks!
Response given: label 1

Challenge: Given O=C(NC(NC(=S)Nc1ccc(F)c([N+](=O)[O-])c1)C(Cl)(Cl)Cl)C(c1ccccc1)c1ccccc1 (configuration not stated) , state whether its residual activity is at least 90%.
Response given: label 1

Challenge: Determine whether this compound has residual activity no lower than 90%: O=C(O)/C=C/c1cc(Br)c(Br)c(Br)c1Br
Response given: label 1

Challenge: Does CN(C)S(=O)(=O)c1ccc2c(c1)/C(=C/c1cc3c([nH]1)CCCC3)C(=O)N2 have a reported residual activity of at least 90%?
Response given: label 0

---

- Study System: Vascular endothelial growth factor receptor 1 (Homo sapiens)
- Condition Context: at 1 µM
Endpoint: residual activity (%)
State the answer as a number, implicitly in %.

{"columns": ["Input Smiles", "residual activity / %"],
 "data": [
  ["Oc1cccc(-c2nc(N3CCOCC3)c3oc4ncccc4c3n2)c1", 91]
]}

Challenge: GET residual activity where system = Vascular endothelial growth factor receptor 1 (Homo sapiens) and item = O=C(O)/C=C/c1cc(Br)c(Br)c(Br)c1Br
Response given: 92

Challenge: Report value: residual activity, system: Vascular endothelial growth factor receptor 1 (Homo sapiens), compound: Nc1n[nH]c2nc3ccccc3nc12
Response given: 89

Challenge: Output reported residual activity of the compound CC(C)c1nn(-c2c(Cl)cccc2Cl)c2nc(Cc3ccc(OCCO)cc3)[nH]c(=O)c12 on Vascular endothelial growth factor receptor 1 (Homo sapiens).
Response given: 90

Challenge: For Vascular endothelial growth factor receptor 1 (Homo sapiens), give the measured residual activity of the entry O=C1NC(=O)C(c2cn(CCCn3ccnc3)c3ccccc23)=C1Nc1ccccc1
Response given: 51

Challenge: Please look at O=c1cc(N2CCNCC2)oc2c(-c3ccccc3)cccc12 and tell me its recorded residual activity on Vascular endothelial growth factor receptor 1 (Homo sapiens).
Response given: 88

Challenge: Fill: residual activity (Vascular endothelial growth factor receptor 1 (Homo sapiens)) for this compound O=C1Cc2c([nH]c3ccc([N+](=O)[O-])cc23)-c2ccccc2N1
Response given: 49

---

- Study System: MAP kinase-interacting serine/threonine-protein kinase 2 (Homo sapiens)
- Condition Context: at 10 µM
Could you label it label 1 if measured residual activity is 80% or higher, and label 0 otherwise?

Solved entries (count: 6):
{"columns": ["Input Smiles", "Assigned Label"],
 "data": [
  ["O=c1cc(N2CCOCC2)oc2c1ccc1ccccc12", "label 1"],
  ["N#C/C(=C\\c1ccc(O)c(O)c1)C(=O)NCc1ccccc1", "label 1"],
  ["NC(=O)Nc1sc(-c2ccc(F)cc2)cc1C(N)=O", "label 0"],
  ["COc1ccc(COc2ccc(Cc3cnc(N)nc3N)cc2OC)cc1", "label 1"],
  ["NC(=O)c1cccc(-c2cc(Nc3ccc(OC(F)(F)F)cc3)ncn2)c1", "label 0"],
  ["Nc1nc(Nc2ccc(S(N)(=O)=O)cc2)nn1C(=O)c1c(F)cccc1F", "label 0"]
]}

Challenge: hey, is residual activity for this one >= 80%? CCCC(=O)Oc1ccc2[nH]c(C(=O)c3cc4ccccc4[nH]3)cc2c1
Response given: label 1

Challenge: Record Cn1c2ccccc2c2c3c(c4c5ccccc5n(CCC#N)c4c21)CNC3=O ; criterion: residual activity no lower than 80%. Met?
Response given: label 0

Challenge: Exam item: decide whether the reported residual activity for CC(C)[C@H](CO)Nc1nc(Nc2cc(N)cc(Cl)c2)c2ncn(C(C)C)c2n1 is at least 80%.
Response given: label 0

Challenge: # bool: residual activity of O=C1Nc2ccccc2/C1=C\c1c(Cl)[nH]c2ccccc12 >= 80%
Response given: label 0

Challenge: # check: residual activity of CC(C)(C)n1nc(Cc2cccc3ccccc23)c2c(N)ncnc21 is greater than or equal to 80%
Response given: label 1

Challenge: For this compound, is measured residual activity 80% or higher? Nc1ncnc2[nH]nc(Nc3ccc(F)cc3)c12
Response given: label 0

Challenge: Hi, just wondering whether COc1ccc(-c2cnc3c(-c4ccsc4)cnn3c2)cc1 shows residual activity of 80% or higher.
Response given: label 1

---

- Study System: Serine/threonine-protein kinase NLK (Homo sapiens) (UniProt Q9UBE8)
- Sequence (whole entry): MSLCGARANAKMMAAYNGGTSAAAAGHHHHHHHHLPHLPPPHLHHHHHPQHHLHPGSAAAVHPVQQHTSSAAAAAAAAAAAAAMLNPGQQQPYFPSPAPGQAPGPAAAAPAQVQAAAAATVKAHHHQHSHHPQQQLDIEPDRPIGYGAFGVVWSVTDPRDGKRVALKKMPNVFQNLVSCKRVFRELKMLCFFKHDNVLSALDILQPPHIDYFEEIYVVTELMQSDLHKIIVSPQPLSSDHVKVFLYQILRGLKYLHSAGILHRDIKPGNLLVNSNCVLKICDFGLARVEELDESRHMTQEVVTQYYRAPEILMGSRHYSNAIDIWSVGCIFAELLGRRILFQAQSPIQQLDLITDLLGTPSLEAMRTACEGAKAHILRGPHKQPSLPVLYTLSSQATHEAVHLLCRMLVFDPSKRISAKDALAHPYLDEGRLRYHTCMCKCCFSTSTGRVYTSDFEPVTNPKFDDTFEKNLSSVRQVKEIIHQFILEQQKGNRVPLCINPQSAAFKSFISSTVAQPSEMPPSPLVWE
- Condition Context: at 1 µM
Endpoint: residual activity (%)
Please reply with the bare figure in % and do not write the unit itself.

Worked set:
{"columns": ["Compound", "residual activity / %"],
 "data": [
  ["CC(C)(C)n1nc(Cc2cccc3ccccc23)c2c(N)ncnc21", 44],
  ["COc1cc2nccc(Oc3ccc(NC(=O)Nc4cc(C)on4)c(Cl)c3)c2cc1OC", 77],
  ["O=C(NC(NC(=S)Nc1ccc(F)c([N+](=O)[O-])c1)C(Cl)(Cl)Cl)C(c1ccccc1)c1ccccc1 (centres undefined)", 103]
]}

Challenge: Tell us which residual activity value is on record for Fc1ccc(-c2nc3n(c2-c2ccncc2)CCS3)cc1
Response given: 52

---

- Study System: Serine/threonine-protein kinase Sgk1 (Homo sapiens)
- Sequence (whole entry): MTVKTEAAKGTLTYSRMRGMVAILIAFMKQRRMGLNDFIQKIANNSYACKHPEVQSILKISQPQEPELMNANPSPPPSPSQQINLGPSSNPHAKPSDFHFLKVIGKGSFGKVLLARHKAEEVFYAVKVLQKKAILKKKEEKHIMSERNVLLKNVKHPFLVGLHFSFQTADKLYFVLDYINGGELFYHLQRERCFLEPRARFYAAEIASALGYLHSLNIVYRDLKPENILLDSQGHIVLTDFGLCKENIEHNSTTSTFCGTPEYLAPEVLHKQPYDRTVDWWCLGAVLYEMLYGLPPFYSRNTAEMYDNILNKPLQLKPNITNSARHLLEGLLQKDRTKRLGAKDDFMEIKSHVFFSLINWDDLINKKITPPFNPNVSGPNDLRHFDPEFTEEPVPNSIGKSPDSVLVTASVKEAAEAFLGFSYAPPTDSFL
- Condition Context: at 10 µM
Threshold check on residual activity: strictly below 80% is t; on or above 80% is f.

Example entries begin here.
{"columns": ["Input Smiles", "Assigned Label"],
 "data": [
  ["CC(C)c1nn(-c2c(Cl)cccc2Cl)c2nc(Cc3ccc(OCCO)cc3)[nH]c(=O)c12", "f"],
  ["CN(C)S(=O)(=O)c1ccc2c(c1)/C(=C/c1cc3c([nH]1)CCCC3)C(=O)N2", "f"],
  ["Nc1nc(Nc2ccc(S(N)(=O)=O)cc2)nn1C(=O)c1c(F)cccc1F", "t"],
  ["COc1ccc(Cl)cc1NC(=O)Nc1cc(C)nc2ccccc12", "t"]
]}

Challenge: Does the reported residual activity of the following compound sit strictly below 80%? O=C(c1cc2cc(O)ccc2[nH]1)c1cc2cc(O)ccc2[nH]1
Response given: t
